ASSAYED TARGET: ERK2 (Homo sapiens, UniProt P28482)
Sequence (P28482 whole entry, species assumed): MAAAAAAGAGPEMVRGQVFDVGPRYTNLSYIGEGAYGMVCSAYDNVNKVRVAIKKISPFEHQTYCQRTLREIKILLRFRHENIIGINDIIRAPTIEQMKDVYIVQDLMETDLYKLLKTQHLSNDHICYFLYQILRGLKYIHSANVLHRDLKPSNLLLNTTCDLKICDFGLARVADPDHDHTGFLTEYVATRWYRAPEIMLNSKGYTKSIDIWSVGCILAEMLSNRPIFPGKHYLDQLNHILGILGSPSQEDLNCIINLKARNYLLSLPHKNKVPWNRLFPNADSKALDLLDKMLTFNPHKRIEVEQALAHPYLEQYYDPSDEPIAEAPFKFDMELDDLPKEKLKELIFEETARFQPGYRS
PROCEDURE TEXT: Kinase inhibition under standard conditions, ERK2
Type: biochemical
Label class 1 when IC50 < 600 nM; otherwise class 0.

Recorded results for 3 compounds are shown here.
[[record]]
compound = "CNC(=O)[C@@]1(O)CC2CC1n1c3ccccc3c3c4c(c5c6ccccc6n2c5c31)C(=O)NC4 (some centres unmarked)"
assayed_target = "ERK2 (Homo sapiens, UniProt P28482)"
class_assignment = "class 1"

[[record]]
compound = "CNC(=O)[C@@]1(N)C[C@H]2O[C@]1(C)n1c3ccccc3c3c4c(c5c6ccccc6n2c5c31)C(=O)NC4"
assayed_target = "ERK2 (Homo sapiens, UniProt P28482)"
class_assignment = "class 1"

[[record]]
compound = "COC(=O)[C@@]1(N)CC2OC1(C)n1c3ccccc3c3c4c(c5c6ccccc6n2c5c31)C(=O)NC4 (some centres unmarked)"
assayed_target = "ERK2 (Homo sapiens, UniProt P28482)"
class_assignment = "class 0"


Attention now turns to another entry.
## Task Does CNC(=O)[C@@]1(O)CC2CC1n1c3ccccc3c3c4c(c5c6ccccc6n2c5c31)C(=O)NC4=O (some centres unmarked) have IC50 strictly under 600 nM?
## Result class 1
